- Test system: oxazolone-induced mouse ear swelling
- Test Name: Model for inhibition of topical inflammation (oxazolone-induced mouse ear swelling)
- Assay type: in vivo, BALB/c male mice
- Details: topical to right ear, dose 2 × 0.3 mg, ear thickness 24 hours after challenge
Observation Type: % Inh. of oxazolone-induced mouse ear swelling (%)

CC(C)c1c(C(=O)Nc2ccccc2)c(-c2ccccc2)c(-c2ccc(F)cc2)n1CC[C@@H](O)C[C@@H](O)CC(=O)O [Atorvastatin sodium]: 9
CC(C)n1c(/C=C/C(O)CC(O)CC(=O)O)c(-c2ccc(F)cc2)c2ccccc21 (stereo not shown) [Fluvastatin sodium]: 28
O=C([O-])C[C@H](O)C[C@H](O)/C=C/c1c(C2CC2)nc2ccccc2c1-c1ccc(F)cc1.O=C([O-])C[C@H](O)C[C@H](O)/C=C/c1c(C2CC2)nc2ccccc2c1-c1ccc(F)cc1.[Ca+2]: 9
CC(C)c1nc(N(C)S(C)(=O)=O)nc(-c2ccc(F)cc2)c1/C=C/[C@@H](O)C[C@@H](O)CC(=O)O [Rosuvastatin sodium]: 20
